Test system: NOMO1
Test: cell viability relative to DMSO control; higher = less cytotoxic
Settings: RPMI 5 mM glucose + 10% FBS; 48 h; 0.000781 µM
observationType: cell viability (%)
Could you give me the number in %? Just the number is fine.

{"compound": "NCCOc1cc(C(=O)Nc2cc(OCCN)c3ccccc3n2)nc(C(=O)Nc2cc(OCCN)c3ccccc3n2)c1", "cell viability, %": 96}
{"compound": "C=C1CCC2[C@](C)(CO)C(O)CC[C@]2(C)C1C/C=C1/C(=O)OCC1O (stereo not given in full)", "cell viability, %": 111}
{"compound": "CC(C)(C)NCC(O)c1ccc(O)c(CO)c1 (stereo not given)", "cell viability, %": 102}
{"compound": "CC[C@H](CO)Nc1nc(NCc2ccccc2)c2ncn(C(C)C)c2n1", "cell viability, %": 82.5}
{"compound": "C[C@@H](Cc1cc2c(c(C(N)=O)c1)N(CCCO)CC2)NCCOc1ccccc1OCC(F)(F)F", "cell viability, %": 94.5}
{"compound": "Cc1cnc(Nc2cccc(CN3CCOCC3)c2)nc1Nc1cccc([S+](=O)([O-])NC(C)(C)C)c1", "cell viability, %": 79.8}
{"compound": "O=c1oc2cc(O)ccc2s1", "cell viability, %": 109}
{"compound": "CCOc1ccccc1N/N=C1/C(=O)N(c2nc(-c3ccccc3)cs2)N=C1C", "cell viability, %": 109}

Enquiry: Query: cell viability; subject: `COc1cccc(N(C)C(=S)Oc2ccc3c(c2)CCCC3)n1`
Return: 85.4

Enquiry: Data request, read-out cell viability, for `O=C1c2ccccc2-c2n[nH]c3cccc1c23`
Return: 90.6

---

Tested on: P12-Ichikawa
Test: cell viability relative to DMSO control; higher = less cytotoxic
Conditions: RPMI 5 mM glucose + 10% FBS; 48 h; 0.0632 µM
observationType: cell viability (%)
Quick note: give the figure in %, leave out the unit.

{"querySmiles": "c1ccc2c(CN3CCNCC3)cccc2c1", "observationType": "cell viability", "numericResult": 111}
{"querySmiles": "COC(=O)[C@H](Cc1ccccc1)NC(=O)[C@@H](N)CC(=O)O", "observationType": "cell viability", "numericResult": 115}

Enquiry: Item under review: `NC[C@H](O)c1ccc(O)c(O)c1` . Reported cell viability?
Return: 105

Enquiry: I'd like to know its cell viability. The molecule in question is `CN(C)C(=O)[C@H](O)[C@H](Cc1ccccc1)NC(=O)c1cc2cc(Cl)ccc2[nH]1`
Return: 119

Enquiry: // returns reported cell viability for input `Nc1cc(N2CCCCC2)nc(N)[n+]1[O-]`
Return: 127

Enquiry: Request the reported cell viability associated with `CCOc1cc(C(=O)Nc2ccc(Cl)c(-c3nc4ccccc4[nH]3)c2)cc(OCC)c1OCC`
Return: 95.8

Enquiry: I have this molecule here, `CCC(=O)O[C@@]1(CC[C@H]2[C@@H]3CCC/4=C/C(=O)CC[C@]4(C)[C@H]3CC[C@]12C)C(=O)CO` , and I need its recorded cell viability.
Return: 112

---

AUC of viability dose-response curve reference
Tested on: NOMO1
Test: AUC of viability dose-response curve (% viability x log10 dose units); higher = less sensitive
Details: HPLM + 10% dialyzed FBS; 48 h

{"compound": "c1coc(CNc2ncnc3nc[nH]c23)c1", "AUC of viability dose-response curve": 455}

Enquiry: Please look up its AUC of viability dose-response curve: `CC(C)[C@H](O)C(=O)N[C@@H](C)C(=O)N[C@@H]1C(=O)N(C)CCc2ccccc21`
Return: 444

---

Tested on: P12-Ichikawa
Assay: cell viability relative to DMSO control; higher = less cytotoxic
Details: RPMI 5 mM glucose + 10% dialyzed FBS; 48 h; 0.000781 µM
observationType: cell viability (%)
# output: bare number, implied unit %

Reference set (3 entries):
{"compound": "C[C@@H]1CC[C@@]2(CC[C@]3(C)\\C(=C/C[C@@H]4[C@@]5(C)C[C@@H](O)[C@H](O)[C@@](C)(CO)[C@@H]5CC[C@@]34C)[C@@H]2[C@H]1C)C(O)=O", "observationType": "cell viability", "numericResult": 109}
{"compound": "CCOC(=O)c1c(CSc2ccccc2)n(C)c2cc(Br)c(O)c(CN(C)C)c12", "observationType": "cell viability", "numericResult": 121}
{"compound": "C#CCC(Cc1cnc2nc(N)nc(N)c2n1)c1ccc(C(=O)N[C@@H](CCC(=O)O)C(=O)O)cc1 (some centres undefined)", "observationType": "cell viability", "numericResult": 120}

# ---- query compound ----
Enquiry: # query: cell viability of entry `NC[C@H](O)c1ccc(O)c(O)c1`
Return: 89.9

---

System: P12-Ichikawa
Experiment: cell viability relative to DMSO control; higher = less cytotoxic
Conditions: RPMI 5 mM glucose + 10% dialyzed FBS; 48 h; 0.0211 µM
Overview of recorded cell viability for various compounds
Give just the numeric value; % need not be written.

{"compound": "CC1(C)CCC(C)(C)c2cc(NC(=O)c3ccc(C(=O)O)cc3)ccc21", "testedTarget": "P12-Ichikawa", "endpointUnit": "%", "cell viability": 108}
{"compound": "CC(C)(Sc1cc(C(C)(C)C)c(O)c(C(C)(C)C)c1)Sc1cc(C(C)(C)C)c(O)c(C(C)(C)C)c1", "testedTarget": "P12-Ichikawa", "endpointUnit": "%", "cell viability": 85.6}
{"compound": "Clc1ccc(C(c2ccccc2Cl)C(Cl)Cl)cc1 (stereo not drawn)", "testedTarget": "P12-Ichikawa", "endpointUnit": "%", "cell viability": 112}
{"compound": "COCC(=O)NC/C=C/c1ccc2ncnc(Nc3ccc(Oc4ccc(C)nc4)c(C)c3)c2c1", "testedTarget": "P12-Ichikawa", "endpointUnit": "%", "cell viability": 113}
{"compound": "CN(CC(=O)N(Cc1ccc(C2CCCCC2)cc1)c1ccc(C(=O)O)c(O)c1)[S+](=O)([O-])c1c(F)c(F)c(F)c(F)c1F", "testedTarget": "P12-Ichikawa", "endpointUnit": "%", "cell viability": 93.9}
{"compound": "Cc1nc(-c2ccc(-c3ccc(C(=O)N4CCc5cc6c(cc54)C4(CCN(C)CC4)CO6)cc3)c(C)c2)no1", "testedTarget": "P12-Ichikawa", "endpointUnit": "%", "cell viability": 116}
{"compound": "C#CCC(Cc1cnc2nc(N)nc(N)c2n1)c1ccc(C(=O)N[C@@H](CCC(=O)O)C(=O)O)cc1 (stereo partly drawn)", "testedTarget": "P12-Ichikawa", "endpointUnit": "%", "cell viability": 125}

Enquiry: What does the data say about its cell viability? Entry: `O=C(O)c1cccc(-c2noc(-c3ccccc3F)n2)c1`
Return: 103

---

System: NOMO1
Assay: cell viability relative to DMSO control; higher = less cytotoxic
Settings: HPLM + 10% dialyzed FBS; 48 h; 46.1 µM
observationType: cell viability

Take a look at these entries with their results.
{"molecule": "CCC[C@H](Nc1nc(-c2ccc(NC(=O)NCC)c(OC)c2)ncc1C)c1cccnc1", "observationType": "cell viability", "result": "39.7%"}
{"molecule": "c1coc(CNc2ncnc3nc[nH]c23)c1", "observationType": "cell viability", "result": "97.3%"}

Enquiry: Lab note: need cell viability with NOMO1 for entry `CC1(C)CCC(C)(C)c2cc(NC(=O)c3ccc(C(=O)O)cc3)ccc21` , please look it up.
Return: 60.7%

Enquiry: Form entry - test system: NOMO1; read-out: cell viability; molecule: `COCCCC/C(=N\OCCN)c1ccc(C(F)(F)F)cc1`
Return: 3.91%

Enquiry: Enter reported cell viability observed with NOMO1 for `CNC(=O)c1nn(C)c2c1C(C)(C)Cc1cnc(Nc3ccc(N4CCN(C)CC4)cc3)nc1-2`
Return: 8.74%

Enquiry: Lookup: cell viability / NOMO1 / `C[C@@H]1CC[C@@]2(CC[C@]3(C)\C(=C/C[C@@H]4[C@@]5(C)C[C@@H](O)[C@H](O)[C@@](C)(CO)[C@@H]5CC[C@@]34C)[C@@H]2[C@H]1C)C(O)=O`
Return: 130%

Enquiry: Give the reported cell viability for `O=C(O)c1cccnc1` (system: NOMO1).
Return: 13.2%

Enquiry: Give NOMO1 cell viability for `CN(C)c1ccc(-c2nc3c(N4CCN(CC(=O)Nc5nccs5)CC4)c(Cl)cnc3[nH]2)cc1`
Return: 69.2%

Enquiry: Recall the recorded cell viability for COc1cccc(OC)c1-c1cc(C(=O)NC2(C(=O)O)C3CC4CC(C3)CC2C4)nn1-c1ccnc2cc(Cl)ccc12 (configuration not stated) with NOMO1 and state it.
Return: 98.9%

Enquiry: Enter reported cell viability observed with NOMO1 for `COc1cc(C[C@@H](CO)[C@H](CO)Cc2ccc(O)c(OC)c2)ccc1O`
Return: 104%

Enquiry: Form: Entry = Clc1ccc(CCC(Cn2ccnc2)Sc2c(Cl)cccc2Cl)cc1 (configuration not stated) | System = NOMO1 | cell viability = ____
Return: 90.4%

Enquiry: API: value(readout= cell viability, system= NOMO1, query= `Cc1cnc(Nc2cccc(CN3CCOCC3)c2)nc1Nc1cccc([S+](=O)([O-])NC(C)(C)C)c1` )
Return: 84.1%

Enquiry: Form field - read-out: cell viability; system: NOMO1; submitted item: `CC1(C)[C@@H](O)CC[C@@]2(C)[C@H]1CC[C@]3(C)[C@@H]2C(=O)\C=C/4[C@@H]5C[C@](C)(CC[C@]5(C)CC[C@@]34C)C(O)=O`
Return: 112%

Enquiry: Value wanted: cell viability (NOMO1) of entry `COc1cc(N2CCN(C)CC2)ccc1Nc1nc(N)c(C(=O)c2c(Cl)cccc2Cl)s1`
Return: 82.7%
